- Tested on: IGROV1 ovarian
- Test name: NCI-60 one-dose screen, 48 h
- Test settings: 10 µM unless noted
About 83,000 compounds went through this panel and 20% of them were active in at least one assay; those are over-represented in the sample as a whole. The source made the active and inactive calls. Rule for the calls: active = growth percent below 10; inactive = the rest.
Possible outcomes: 1 = active, 0 = inactive

# Compound, Label class
rows = [
    ("Cc1cnc([C@]23CC[C@@H](C)[C@H](C)[C@H]2C2=CC[C@@H]4[C@@]5(C)Cc6c([nH]c7ccccc67)C(C)(C)[C@@H]5CC[C@@]4(C)[C@]2(C)CC3)o1", 0),
    ("Oc1c(CNCCNCc2cc(Cl)cc(Cc3ccccc3)c2O)cc(Cl)cc1Cc1ccccc1", 0),
    ("C=C(C)[C@@H]1CC[C@]2(C(=O)NCCNCCNCCN)CC[C@]3(C)[C@H](CC[C@@H]4[C@@]5(C)CC[C@H](O)C(C)(C)[C@@H]5CC[C@]43C)[C@@H]12", 1),
    ("CCOC(=O)/C(C#N)=C(\\C)CCc1ccccc1", 0),
    ("C[C@H]1[C@H](C)CC[C@]2(COC(=O)CCC(=O)O)CC[C@]3(C)C(=CC[C@@H]4[C@@]5(C)CCCNC(C)(C)[C@@H]5CC[C@]43C)[C@H]12", 0),
    ("O=C(O)CC1CCCCC1c1ccccc1 (stereo not drawn)", 0),
    ("CCCc1cc2cc(-n3nc(C)c4c3CC(C)(C)CC4=O)cc(NC3CCSCC3)c2c(=O)[nH]1", 0),
    ("O=C(O)c1cn(C2CC2)c2cc(N3CCN(Cc4cc(Cl)ccc4O)CC3)c(F)cc2c1=O", 0),
]
